Provenance of the data: ChEMBL document CHEMBL1146710

Molecular target: Dihydroorotate dehydrogenase (quinone), mitochondrial (Homo sapiens)
Sequence (Q02127 whole entry): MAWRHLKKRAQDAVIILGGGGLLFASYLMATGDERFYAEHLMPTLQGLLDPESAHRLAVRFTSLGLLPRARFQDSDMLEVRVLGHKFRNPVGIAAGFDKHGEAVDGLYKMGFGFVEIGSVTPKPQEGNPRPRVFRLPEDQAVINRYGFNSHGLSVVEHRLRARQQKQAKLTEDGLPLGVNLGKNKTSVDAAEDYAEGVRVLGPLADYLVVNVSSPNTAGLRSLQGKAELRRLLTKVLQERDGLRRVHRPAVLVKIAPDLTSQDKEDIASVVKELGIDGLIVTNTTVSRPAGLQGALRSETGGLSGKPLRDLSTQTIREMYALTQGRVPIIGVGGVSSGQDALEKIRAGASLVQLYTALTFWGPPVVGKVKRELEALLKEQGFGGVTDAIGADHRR
pIC50: −log10 of the molar value.
Classification field: enter True for pIC50 values not below 7, False for values below it.

Please review the entries below; each comes with its answer.
> print(dat)
                            compound.smiles  discrete.label
1  O=C(O)C1=C(C(=O)Nc2ccc(-c3cccc(OC(F)(F)F)c3)c(Cl)c2)CCC1            True
2  O=C(O)C1=C(C(=O)Nc2ccc(-c3cccc(OC(F)(F)F)c3)cc2C(F)(F)F)CCC1           False
3  O=C(O)C1=C(C(=O)Nc2ccc(-c3ccc(Br)cc3)cc2Cl)CCC1           False
4  O=C(O)C1=C(C(=O)Nc2c(F)c(F)c(-c3cccc(OC(F)(F)F)c3)c(F)c2F)CCC1            True
5  O=C(O)C1=C(C(=O)Nc2ccc(-c3ccc(OC(F)(F)F)cc3)cc2F)CCC1           False

Query :: Does the compound `COc1ccccc1-c1c(F)c(F)c(NC(=O)C2=C(C(=O)O)CCC2)c(F)c1F` have recorded pIC50 that is 7 or more?
Result :: True

Query :: Does the compound `COc1ccc(-c2ccc(NC(=O)C3=C(C(=O)O)CCC3)c(F)c2)cc1` have recorded pIC50 that is 7 or more?
Result :: False
